biological target: furin, P09958; assay: furin cleavage Z-score vs untreated control; higher = more cleavage, active = 3.5 or more, inactive = 1 or less, 8 variable residues between constant flanks; conditions: 15 min;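 also: purified furin at 1:10 enzyme:substrate in 50 mM HEPES pH 7.5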
Sequence (P09958 whole entry): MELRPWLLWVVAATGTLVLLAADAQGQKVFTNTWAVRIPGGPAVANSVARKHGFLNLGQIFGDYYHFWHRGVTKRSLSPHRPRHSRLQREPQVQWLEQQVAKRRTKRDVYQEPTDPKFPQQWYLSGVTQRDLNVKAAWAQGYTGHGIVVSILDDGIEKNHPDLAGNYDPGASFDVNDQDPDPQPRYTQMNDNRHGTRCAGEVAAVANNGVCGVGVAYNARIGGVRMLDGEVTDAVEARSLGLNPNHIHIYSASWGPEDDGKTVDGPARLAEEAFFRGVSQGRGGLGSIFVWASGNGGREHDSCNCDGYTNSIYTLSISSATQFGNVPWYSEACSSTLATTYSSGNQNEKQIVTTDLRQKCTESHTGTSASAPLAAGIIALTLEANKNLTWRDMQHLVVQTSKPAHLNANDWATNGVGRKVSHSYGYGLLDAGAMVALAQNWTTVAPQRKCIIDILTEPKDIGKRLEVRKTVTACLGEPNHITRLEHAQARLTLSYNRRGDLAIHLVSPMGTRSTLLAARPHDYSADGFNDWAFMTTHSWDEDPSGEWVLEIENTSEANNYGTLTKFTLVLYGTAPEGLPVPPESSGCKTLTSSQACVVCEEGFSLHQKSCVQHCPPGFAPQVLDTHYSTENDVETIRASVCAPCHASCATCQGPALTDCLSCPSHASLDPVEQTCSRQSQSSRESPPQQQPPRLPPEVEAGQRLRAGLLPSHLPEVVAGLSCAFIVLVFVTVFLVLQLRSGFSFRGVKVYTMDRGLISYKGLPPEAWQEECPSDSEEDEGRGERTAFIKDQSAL
The list shows a part of the results. No count for the full screen is at hand.
Assign Satisfied to entries whose furin cleavage Z-score meets or exceeds -0.9; assign Not satisfied to the rest.

Example entries begin here.
[[record]]
residue_string = "CASTAAQTFLAGNASASA [HC692]"
class_label = "Not satisfied"

[[record]]
residue_string = "CARPSRSISLAGNASASA [FS-3027]"
class_label = "Satisfied"


Query: Check this sequence for furin cleavage Z-score at or above -0.9: CARATRKTSEAGNASASA [HC184]
Response: Not satisfied

Query: Check this sequence for furin cleavage Z-score at or above -0.9: CARKKKSISLAGNASASA [FS-1855]
Response: Satisfied

Query: Check this sequence for furin cleavage Z-score at or above -0.9: CATGLIHLHQAGNASASA [HC504]
Response: Satisfied

Query: Check this sequence for furin cleavage Z-score at or above -0.9: CARPSRSGGRAGNASASA [FS-2287]
Response: Satisfied
